endpoint-name: IC50 (µM)
Write down the numeric answer in µM and omit the unit.

Q: Give the reported IC50 for Nc1c(-c2ccccc2)nn(-c2nc(C(=O)O)cs2)c1-c1ccccc1 (system: Cytochrome P450 2C9 (Homo sapiens)).
Sequence (P11712 whole entry): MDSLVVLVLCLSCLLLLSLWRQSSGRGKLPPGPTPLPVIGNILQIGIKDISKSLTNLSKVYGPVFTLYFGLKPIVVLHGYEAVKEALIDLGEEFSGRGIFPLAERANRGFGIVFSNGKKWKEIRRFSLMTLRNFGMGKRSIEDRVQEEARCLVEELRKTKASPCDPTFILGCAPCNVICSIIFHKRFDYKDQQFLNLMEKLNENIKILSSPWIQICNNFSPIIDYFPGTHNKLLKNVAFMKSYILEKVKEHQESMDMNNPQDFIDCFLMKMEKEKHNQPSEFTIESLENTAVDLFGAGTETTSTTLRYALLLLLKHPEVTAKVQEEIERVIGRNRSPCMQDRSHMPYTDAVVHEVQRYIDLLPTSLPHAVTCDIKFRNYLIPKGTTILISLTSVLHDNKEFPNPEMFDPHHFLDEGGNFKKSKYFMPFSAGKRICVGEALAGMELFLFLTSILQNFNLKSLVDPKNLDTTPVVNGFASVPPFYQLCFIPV
A: 5.62

----------
# assay-system: albumin (Homo sapiens)
# Sequence (P02768 whole entry): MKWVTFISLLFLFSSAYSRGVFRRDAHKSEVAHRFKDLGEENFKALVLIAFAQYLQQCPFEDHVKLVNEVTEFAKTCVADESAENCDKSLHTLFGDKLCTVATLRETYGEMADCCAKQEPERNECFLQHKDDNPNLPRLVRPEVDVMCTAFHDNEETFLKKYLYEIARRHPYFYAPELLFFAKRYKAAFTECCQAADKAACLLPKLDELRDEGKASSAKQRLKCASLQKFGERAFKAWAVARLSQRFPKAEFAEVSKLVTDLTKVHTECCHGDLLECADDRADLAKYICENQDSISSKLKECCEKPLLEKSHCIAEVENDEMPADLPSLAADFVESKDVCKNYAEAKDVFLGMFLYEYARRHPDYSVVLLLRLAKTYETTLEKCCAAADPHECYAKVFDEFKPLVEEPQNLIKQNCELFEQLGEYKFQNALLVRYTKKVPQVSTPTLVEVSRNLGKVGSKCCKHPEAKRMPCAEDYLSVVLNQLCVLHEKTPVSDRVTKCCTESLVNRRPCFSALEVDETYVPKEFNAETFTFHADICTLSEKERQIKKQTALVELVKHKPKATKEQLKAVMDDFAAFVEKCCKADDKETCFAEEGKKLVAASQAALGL
# experiment: Binding affinity to albumin in plasma (unknown origin)
# Format: ADME
# condition: read-out: PPB (converted)
endpoint-name: fraction unbound
Kindly provide the number alone.

Q: # input molecule: Nc1c(-c2ccccc2)nn(-c2nc(C(=O)O)cs2)c1-c1ccccc1 ; wanted: its fraction unbound
A: 0.01

Q: # input molecule: O=C(O)c1csc(-n2nc3c(c2-c2ccccc2)CCc2ccccc2-3)n1 ; wanted: its fraction unbound
A: 0.0012

Q: # input molecule: O=C(O)c1csc(-n2nc(-c3ccccc3)c3c2-c2ccccc2C3)n1 ; wanted: its fraction unbound
A: 0.0032

Q: # input molecule: Cc1c(-c2ccccc2)nn(-c2nc(C(=O)O)cs2)c1-c1ccccc1 ; wanted: its fraction unbound
A: 0.0029

----------
# experiment: AUC (0 to infinity) in rat at 10 mg/kg, po
# Type: ADME, organism-based
# Set-up: time infinity, dose 10 mg/kg, route oral
# condition: plasma
endpoint-name: AUC(0-inf) (µM·h)
Write down the numeric answer in µM·h and omit the unit.

Q: # input compound: Nc1c(-c2ccccc2)nn(-c2nc(C(=O)O)cs2)c1-c1ccccc1 ; wanted: its AUC(0-inf)
A: 17.4

----------
# experiment: Solubility of the compound at pH 1.2
# Assay type: physicochemical
# condition: buffer
endpoint-name: solubility (µg/mL)
Write down the numeric answer in µg/mL and omit the unit.

Q: # input compound: Nc1c(-c2ccccc2)nn(-c2nc(C(=O)O)cs2)c1-c1ccccc1 ; wanted: its solubility
A: 867

----------
# assay-system: Prostaglandin E2 receptor EP1 subtype (Homo sapiens)
# Sequence (P34995 whole entry): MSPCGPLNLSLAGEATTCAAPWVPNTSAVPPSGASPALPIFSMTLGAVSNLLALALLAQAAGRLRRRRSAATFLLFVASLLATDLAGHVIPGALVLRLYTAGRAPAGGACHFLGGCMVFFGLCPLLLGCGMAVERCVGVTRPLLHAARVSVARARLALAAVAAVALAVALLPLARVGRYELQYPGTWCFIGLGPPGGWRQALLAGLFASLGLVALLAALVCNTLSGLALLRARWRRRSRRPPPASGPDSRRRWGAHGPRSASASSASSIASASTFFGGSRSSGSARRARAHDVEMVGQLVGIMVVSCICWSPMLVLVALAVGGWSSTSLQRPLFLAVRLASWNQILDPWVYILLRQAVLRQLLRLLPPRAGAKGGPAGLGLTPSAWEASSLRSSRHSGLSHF
# experiment: Binding affinity to human EP1 receptor
endpoint-name: pKi
The value called pKi is obtained by taking minus log10 of the concentration in mol/L.

Q: # input compound: Nc1c(-c2ccccc2)nn(-c2nc(C(=O)O)cs2)c1-c1ccccc1 ; wanted: its pKi
A: 8.10

Provenance of the data: ChEMBL document CHEMBL3091274
